- Tested on: SW-620 colon
- assayRemarks: NCI tumour cell line growth inhibition, 48 h
observationType: TGI

Consider the reported TGI for these compounds:
O=C1C(N2CCCC2)=CC(=O)c2c(O)c(N3CCCC3)c(Cl)c(O)c21 | > 10 µM
Cc1ccc(S(=O)(=O)N/N=C/c2oc(-c3cccc([N+](=O)[O-])c3)c(-c3cccc([N+](=O)[O-])c3)c2[N+](=O)[O-])cc1 | > 100 µM
c1ccc(SC2(Sc3ccccc3)CCCC2)cc1 | > 100 µM
CCOc1ccccc1NC(=O)CCC(=O)OC | > 60.5 µM

Moving on to another compound below.
# input Fill in: TGI of CC[C@@]1(O)C(=O)OCc2c1cc1n(c2=O)Cc2c-1nc1ccccc1c2/C=N\NC(=O)C(N)CC(C)C (stereo not given in full) is ___
# output > 40.2 µM
